- Target of assay: FGFR1 (UniProt P11362)
- Sequence (P11362 whole entry, looked up): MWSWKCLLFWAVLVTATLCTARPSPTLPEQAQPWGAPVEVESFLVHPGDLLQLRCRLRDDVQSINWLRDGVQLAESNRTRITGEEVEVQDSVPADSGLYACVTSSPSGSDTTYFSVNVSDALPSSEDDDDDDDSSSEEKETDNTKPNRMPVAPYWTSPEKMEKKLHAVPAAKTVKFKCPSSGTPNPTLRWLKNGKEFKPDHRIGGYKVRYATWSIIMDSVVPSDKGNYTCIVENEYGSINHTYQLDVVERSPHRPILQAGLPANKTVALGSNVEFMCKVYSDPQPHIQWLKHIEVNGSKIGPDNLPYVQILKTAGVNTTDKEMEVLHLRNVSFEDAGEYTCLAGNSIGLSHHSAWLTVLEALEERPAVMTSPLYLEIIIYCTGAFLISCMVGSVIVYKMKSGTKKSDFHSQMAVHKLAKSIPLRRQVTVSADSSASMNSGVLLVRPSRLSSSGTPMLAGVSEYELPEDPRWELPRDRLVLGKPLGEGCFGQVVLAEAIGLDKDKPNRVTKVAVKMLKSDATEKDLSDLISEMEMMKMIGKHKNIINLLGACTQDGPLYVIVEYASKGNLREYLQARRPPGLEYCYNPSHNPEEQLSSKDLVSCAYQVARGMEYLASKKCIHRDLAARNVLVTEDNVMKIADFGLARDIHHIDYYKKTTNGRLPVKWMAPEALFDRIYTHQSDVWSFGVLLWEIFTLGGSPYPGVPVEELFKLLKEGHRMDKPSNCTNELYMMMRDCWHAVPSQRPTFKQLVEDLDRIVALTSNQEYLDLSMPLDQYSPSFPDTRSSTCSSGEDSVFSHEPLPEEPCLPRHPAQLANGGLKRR
- Experiment notes: phosphorylation enrichment, bacterial display (enrichment ratio); higher = better substrate or ligand; peptides without Tyr show the background
Label Fulfilled for high-side phosphorylation enrichment (at or above 0.6) and Not fulfilled for low-side phosphorylation enrichment (below it).

Solved cases below.
Residue sequence: APQYTYAQGGQ [FLNA_Y1763]
Label class: Not fulfilled
--
Residue sequence: FVHDNYVIRRT [CPS1_Y1450]
Label class: Not fulfilled
--
Residue sequence: ECKEAYHEGEC [PRKN_Y372]
Label class: Fulfilled
--
Residue sequence: KGEDFYCVTRH [FHL1_Y149_C153R]
Label class: Not fulfilled
--
Residue sequence: LGLTVYADCLA [ABCA4_Y2063]
Label class: Fulfilled
--
Residue sequence: TFGQVYKGPHV [TNIK_Y40_R43P_YF]
Label class: Not fulfilled
--
Residue sequence: PVQAASQKVVA [HBB_Y131_Y131S]
Label class: Not fulfilled
--
Residue sequence: SENYTYIWWLN [PSG4_Y271_K267E]
Label class: Fulfilled

Lab note: next sequence to report on.
Input: State whether the measured phosphorylation enrichment reaches 0.6, counting equality as reaching it, for ENQEIYQKAFD [KPNA1_Y493]
Output: Not fulfilled

* * *

- Target of assay: EPHB1 (UniProt P54762)
- Sequence (P54762 whole entry, looked up): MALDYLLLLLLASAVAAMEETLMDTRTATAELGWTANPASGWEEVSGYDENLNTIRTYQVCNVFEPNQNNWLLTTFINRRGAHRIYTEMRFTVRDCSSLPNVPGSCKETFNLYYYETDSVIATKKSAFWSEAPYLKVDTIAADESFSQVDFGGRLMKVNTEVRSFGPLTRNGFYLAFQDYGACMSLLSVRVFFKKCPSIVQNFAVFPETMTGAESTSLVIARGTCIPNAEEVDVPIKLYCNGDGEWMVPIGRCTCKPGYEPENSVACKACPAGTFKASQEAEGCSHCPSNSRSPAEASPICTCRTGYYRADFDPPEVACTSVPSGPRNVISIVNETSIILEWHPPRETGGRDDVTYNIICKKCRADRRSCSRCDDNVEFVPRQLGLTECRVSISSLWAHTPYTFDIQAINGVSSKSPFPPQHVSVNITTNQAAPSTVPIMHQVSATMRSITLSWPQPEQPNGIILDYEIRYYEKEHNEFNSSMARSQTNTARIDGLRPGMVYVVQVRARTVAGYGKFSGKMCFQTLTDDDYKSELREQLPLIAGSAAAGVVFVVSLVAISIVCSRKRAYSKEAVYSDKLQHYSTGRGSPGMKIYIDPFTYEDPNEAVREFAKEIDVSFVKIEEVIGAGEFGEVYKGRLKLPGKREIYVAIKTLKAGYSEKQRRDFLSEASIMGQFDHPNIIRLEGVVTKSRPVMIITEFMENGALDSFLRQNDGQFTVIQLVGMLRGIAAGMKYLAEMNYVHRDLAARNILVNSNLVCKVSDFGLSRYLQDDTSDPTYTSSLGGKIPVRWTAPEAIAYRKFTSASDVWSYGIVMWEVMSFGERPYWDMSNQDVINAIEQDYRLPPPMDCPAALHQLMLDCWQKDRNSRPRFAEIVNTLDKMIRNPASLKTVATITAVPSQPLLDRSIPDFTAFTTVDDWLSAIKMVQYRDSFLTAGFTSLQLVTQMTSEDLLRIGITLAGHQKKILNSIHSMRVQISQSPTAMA
- Experiment notes: phosphorylation enrichment, bacterial display (enrichment ratio); higher = better substrate or ligand; peptides without Tyr show the background
Label Fulfilled for high-side phosphorylation enrichment (at or above 0.7) and Not fulfilled for low-side phosphorylation enrichment (below it).

Solved cases below.
Residue sequence: GDKKAYVRLAP [RPL23A_Y137_E133D]
Label class: Not fulfilled
--
Residue sequence: TETGRYEILTE
Label class: Not fulfilled
--
Residue sequence: ALWFIYLHTRS [ENG_Y614_S615L_YF]
Label class: Not fulfilled

Input: State whether the measured phosphorylation enrichment reaches 0.7, counting equality as reaching it, for KERNQYGGVMV [MMP21_Y347_E349G]
Output: Not fulfilled

Input: Now consider LEQDEYALRSH [HADHB_Y244] .
Output: Fulfilled

* * *

This listing pairs sequences with measured phosphorylation enrichment.
- Target of assay: FGFR1 (UniProt P11362)
- Experiment notes: phosphorylation enrichment, bacterial display (enrichment ratio); higher = better substrate or ligand; peptides without Tyr show the background
Please state the value as a number alone, without comment.

Residue sequence: TVLWQYTGTRP [UGT1A1_Y337_R336Q]
phosphorylation enrichment: 0.366

Could you now look at the following sequence, please?
Input: Entry ADARMYGVHPW [PLP1_Y207_L210H] : reported phosphorylation enrichment = ?
Output: 0.38

* * *

- Target of assay: c-Src SH2
- Experiment notes: SH2 binding enrichment of the phosphorylated peptide, bacterial display (enrichment ratio); higher = better substrate or ligand; peptides without Tyr show the background
Recorded endpoint: SH2 binding enrichment
Please state the value as a number alone, without comment.

Consider the reported SH2 binding enrichment for these sequences:
Residue sequence: RLLVVYPWTQR [HBB_Y36]
Target of assay: c-Src SH2
SH2 binding enrichment: 1.41
--
Residue sequence: RVAFQYGVTDL [MYBPC3_Y340_I336V]
Target of assay: c-Src SH2
SH2 binding enrichment: 0.545
--
Residue sequence: LSGFCYRLSDQ [PDCD6_Y124_G123C]
Target of assay: c-Src SH2
SH2 binding enrichment: 0.471
--
Residue sequence: TFGQVYKGRHV [TNIK_Y40_YF]
Target of assay: c-Src SH2
SH2 binding enrichment: 0.752
--
Residue sequence: DYTEAYNPKIK [CLK1_Y305]
Target of assay: c-Src SH2
SH2 binding enrichment: 1.43

Input: Entry DVRQEYSGMIL [PLXND1_Y616_P617S] : reported SH2 binding enrichment = ?
Output: 0.536

Input: Now consider HPFHVYPQPGM [BAG3_Y114] .
Output: 0.883

Input: Now consider KKCTRYIDCAL [ASPA_Y64_D68A] .
Output: 0.709

* * *

- Target of assay: Grb2 SH2 (UniProt P62993)
- Sequence (P62993 whole entry, looked up): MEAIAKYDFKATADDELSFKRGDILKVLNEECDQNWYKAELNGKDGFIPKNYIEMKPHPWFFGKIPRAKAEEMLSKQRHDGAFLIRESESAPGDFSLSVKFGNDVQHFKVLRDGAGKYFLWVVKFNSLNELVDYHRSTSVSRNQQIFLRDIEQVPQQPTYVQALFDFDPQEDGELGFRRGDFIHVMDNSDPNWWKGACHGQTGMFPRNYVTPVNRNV
- Experiment notes: SH2 binding enrichment of the phosphorylated peptide, bacterial display (enrichment ratio); higher = better substrate or ligand; peptides without Tyr show the background
Recorded endpoint: SH2 binding enrichment
Please state the value as a number alone, without comment.

Residue sequence: APGDAYGDAGY [SYP_Y250]
Target of assay: Grb2 SH2 (UniProt P62993)
Value: 0.815
//
Residue sequence: FAASSYSFSDL [EMD_Y59_S54F]
Target of assay: Grb2 SH2 (UniProt P62993)
Value: 0.864
//
Residue sequence: HELFVYKCDEN [DOCK3_Y548_YF]
Target of assay: Grb2 SH2 (UniProt P62993)
Value: 1.14
//
Residue sequence: KNITEYCRDLI [RECQL_Y492]
Target of assay: Grb2 SH2 (UniProt P62993)
Value: 0.99
//
Residue sequence: AAARPYHIQKW [ACSBG1_Y677]
Target of assay: Grb2 SH2 (UniProt P62993)
Value: 1.41
//
Residue sequence: CTTIHYNHMCN [TP53_Y234_Y236H]
Target of assay: Grb2 SH2 (UniProt P62993)
Value: 1.22
//
Residue sequence: LWQSIYNLDAE [TNNT2_Y251_E254D]
Target of assay: Grb2 SH2 (UniProt P62993)
Value: 0.771
//
Residue sequence: QQLDEYQELLD [LMNA_Y359]
Target of assay: Grb2 SH2 (UniProt P62993)
Value: 0.798
//
Residue sequence: ALVDTYCRHNY [HLA-DRB1_Y107_A103L]
Target of assay: Grb2 SH2 (UniProt P62993)
Value: 0.911
//
Residue sequence: FFIMMYTGSSV [DNAJC13_Y1131_N1135S]
Target of assay: Grb2 SH2 (UniProt P62993)
Value: 0.703

Input: Write down the reported SH2 binding enrichment of HLLRIYYDITD [MMP27_Y307_W304L] , test system: Grb2 SH2 (UniProt P62993).
Output: 0.711

Input: Now consider SFGENYDNSKS [MAN1B1_Y60] .
Output: 0.765

Input: Now consider GRPMDYQVSIT [OTOF_Y254] .
Output: 0.767

Input: Now consider VLRQVYVDFEG [KMT2B_Y1707_R1705Q] .
Output: 0.833

Input: Now consider TQIGQYGNGLK [MORC2_Y100] .
Output: 0.991

Input: Now consider CKQGKYLNWDA [ATM_Y54_S49C] .
Output: 5.58

Input: Now consider ARVDTYCRHNF [HLA-DRB1_Y107_A103R_YF] .
Output: 1.01

Input: Now consider QLAPQYTYTQG [FLNA_Y1761_A1764T] .
Output: 0.766

Input: Now consider GQKVAYGGTGD [ALDH3A1_Y305] .
Output: 0.756

Input: Now consider VHNLDYYKETT [FGFR3_Y647_K650E] .
Output: 0.702

* * *

- Target of assay: FGFR1 (UniProt P11362)
- Experiment notes: phosphorylation enrichment, bacterial display (enrichment ratio); higher = better substrate or ligand; peptides without Tyr show the background
Label Yes for high-side phosphorylation enrichment (at or above 0.5) and No for low-side phosphorylation enrichment (below it).

Input: State whether the measured phosphorylation enrichment reaches 0.5, counting equality as reaching it, for TVEDHDYEGGI [TKT_Y563_Y563D]
Output: No

* * *

- System: c-Src
- Experiment notes: phosphorylation enrichment, bacterial display (enrichment ratio); higher = better substrate or ligand; peptides without Tyr show the background
Recorded endpoint: phosphorylation enrichment

Consider the reported phosphorylation enrichment for these sequences:
Residue sequence: TNRSVYFKPSL [NUP153_Y382]
phosphorylation enrichment: 0.511

Residue sequence: AQQPIYVRVEG [NLRP7_Y318]
phosphorylation enrichment: 3.6

Residue sequence: QDLFLYQTHSE [PKHD1_Y255]
phosphorylation enrichment: 0.964

Residue sequence: SSAAGYACLAY [MVD_Y131]
phosphorylation enrichment: 0.593

Residue sequence: RGDSAYHSQRH [ERBB3_Y1132]
phosphorylation enrichment: 0.462

Residue sequence: HSDFQYSQRSQ [PKP2_Y168_YF]
phosphorylation enrichment: 0.747

Residue sequence: KRLKDYLMVLQ [USP25_Y425_T427M]
phosphorylation enrichment: 0.444

Residue sequence: CKQGKYLNWDA [ATM_Y54_S49C]
phosphorylation enrichment: 0.366

Residue sequence: CTHDLYMIMRE [FGFR3_Y724]
phosphorylation enrichment: 2.22

Residue sequence: ASFSLYEPAKM [MKI67_Y340_P338S]
phosphorylation enrichment: 1.25

Input: Write down the reported phosphorylation enrichment of GDYYRYLAEVA [YWHAG_Y133] , test system: c-Src.
Output: 1.93

Input: Now consider MSSLPYMKMIF [SLC4A11_Y853] .
Output: 0.813

Input: Now consider PQGVGYPQQQQ [EP300_Y2219_P2221Q] .
Output: 0.475

Input: Now consider RISGVYKLPPD [ANGPTL7_Y145] .
Output: 0.827

Data credit: the supplement of paper PMC10065799
